Tested on: Left cardiac atrium
test description: Effect on 2 Hz electrically driven contractile tension in WKY rat left atria at 3 uM relative to control
Type: functional
Please provide measured Activity for the entries that follow.
Please reply with the bare figure in % and do not write the unit itself.

Field Activity (entry CCCCO[C@H](c1ccc(O)c(O)c1)[C@H](CC#Cc1ccc(O)c(O)c1)O[C@@H]1O[C@H](CO)[C@@H](O)[C@H](O)[C@H]1O ) reads 91.2

Activity reported for this molecule CCCCO[C@@H](c1ccc(O)c(O)c1)[C@H](CC#Cc1ccc(O)c(O)c1)O[C@@H]1O[C@H](CO)[C@@H](O)[C@H](O)[C@H]1O : 101.1

The measured Activity associated with CO[C@H](c1ccc(O)c(O)c1)[C@H](CC#Cc1ccc(O)c(O)c1)O[C@@H]1O[C@H](CO)[C@@H](O)[C@H](O)[C@H]1O reads 101.3

Per the records, this molecule ( OC[C@H]1O[C@@H](O[C@@H](CC#Cc2ccc(O)cc2)[C@H](O)c2ccc(O)c(O)c2)[C@H](O)[C@@H](O)[C@@H]1O ) has Activity equal to 111.5

The molecule OC[C@H]1O[C@@H](O[C@@H](CC#Cc2ccc(O)c(O)c2)[C@H](O)c2ccc(O)c(O)c2)[C@H](O)[C@@H](O)[C@@H]1O [NYASICOSIDE] showed Activity equal to 104.5

###

Tested on: Heart
test description: Effect on spontaneously beating heart rate in WKY rat right atria at 10 uM relative to control
parameter: Activity (%)
Just the number please, in %, no unit attached.

Per the records, this compound ( CCCCO[C@@H](c1ccc(O)c(O)c1)[C@H](CC#Cc1ccc(O)c(O)c1)O[C@@H]1O[C@H](CO)[C@@H](O)[C@H](O)[C@H]1O ) has Activity equal to 98.4

What the record says about CCCCO[C@H](c1ccc(O)c(O)c1)[C@H](CC#Cc1ccc(O)c(O)c1)O[C@@H]1O[C@H](CO)[C@@H](O)[C@H](O)[C@H]1O : Activity is 99.8

Measured Activity of OC[C@H]1O[C@@H](O[C@@H](CC#Cc2ccc(O)c(O)c2)[C@H](O)c2ccc(O)c(O)c2)[C@H](O)[C@@H](O)[C@@H]1O [NYASICOSIDE] : 98.5

// OC[C@H]1O[C@@H](O[C@@H](CC#Cc2ccc(O)cc2)[C@H](O)c2ccc(O)c(O)c2)[C@H](O)[C@@H](O)[C@@H]1O : Activity value = 98.5

Activity in this record for CO[C@H](c1ccc(O)c(O)c1)[C@H](CC#Cc1ccc(O)c(O)c1)O[C@@H]1O[C@H](CO)[C@@H](O)[C@H](O)[C@H]1O : 103

###

test description: Effect on 2 Hz electrically driven contractile tension in WKY rat right ventricle at 1 uM relative to control
Assay type: functional, Heart right ventricle
Exercise: for every item that follows, state its recorded Activity.
Reply with just the number (in %).

Recorded Activity (compound CCCCO[C@@H](c1ccc(O)c(O)c1)[C@H](CC#Cc1ccc(O)c(O)c1)O[C@@H]1O[C@H](CO)[C@@H](O)[C@H](O)[C@H]1O ): 100

The value of Activity measured for the compound OC[C@H]1O[C@@H](O[C@@H](CC#Cc2ccc(O)c(O)c2)[C@H](O)c2ccc(O)c(O)c2)[C@H](O)[C@@H](O)[C@@H]1O [NYASICOSIDE] turned out to be 84.8

The measured Activity associated with CCCCO[C@H](c1ccc(O)c(O)c1)[C@H](CC#Cc1ccc(O)c(O)c1)O[C@@H]1O[C@H](CO)[C@@H](O)[C@H](O)[C@H]1O reads 95.8

Recorded Activity (compound OC[C@H]1O[C@@H](O[C@@H](CC#Cc2ccc(O)cc2)[C@H](O)c2ccc(O)c(O)c2)[C@H](O)[C@@H](O)[C@@H]1O ): 98.4

Consider CO[C@H](c1ccc(O)c(O)c1)[C@H](CC#Cc1ccc(O)c(O)c1)O[C@@H]1O[C@H](CO)[C@@H](O)[C@H](O)[C@H]1O . Its measured Activity is 106.7

###

Tested on: Heart
test description: Effect on spontaneously beating heart rate in WKY rat right atria at 0.3 uM relative to control
parameter: Activity (%)
Field format: number, assumed %, no unit text.

Measured Activity of CCCCO[C@H](c1ccc(O)c(O)c1)[C@H](CC#Cc1ccc(O)c(O)c1)O[C@@H]1O[C@H](CO)[C@@H](O)[C@H](O)[C@H]1O : 100

Please fill in: Activity reported for CCCCO[C@@H](c1ccc(O)c(O)c1)[C@H](CC#Cc1ccc(O)c(O)c1)O[C@@H]1O[C@H](CO)[C@@H](O)[C@H](O)[C@H]1O = 100

According to the records, this compound OC[C@H]1O[C@@H](O[C@@H](CC#Cc2ccc(O)c(O)c2)[C@H](O)c2ccc(O)c(O)c2)[C@H](O)[C@@H](O)[C@@H]1O [NYASICOSIDE] displays Activity of 100

Looking up OC[C@H]1O[C@@H](O[C@@H](CC#Cc2ccc(O)cc2)[C@H](O)c2ccc(O)c(O)c2)[C@H](O)[C@@H](O)[C@@H]1O , I found its Activity recorded as 100
